# procedure.summary: Pharmacokinetic assay in rats
# Format: in vivo, Sprague-Dawley rats
# condition.notes: male, Sprague-Dawley, plasma; rat, PO 10 mg/kg
A collection of compounds and their measured half-life
readout.name: half-life (h)

- C=CC(=O)Nc1cc(Nc2nccc(-n3cc(CN(C)C)c(-c4ccccc4)n3)n2)c(OC)nc1N1CCOCC1 [Compound T-1]: 8.69
- C=CC(=O)Nc1cc(Nc2ncc(F)c(-n3cc(CN(C)C)c(-c4ccccc4)n3)n2)c(OC)nc1N1CCOCC1 [Compound T-2]: 6.4

====

A collection of molecules and their measured Cmax
# procedure.summary: Pharmacokinetic assay in rats
# Type: in vivo, Sprague-Dawley rats
# condition.notes: male, Sprague-Dawley, plasma; rat, IV 0.5 mg/kg
readout.name: Cmax (ng/mL)

• C=CC(=O)Nc1cc(Nc2ncc(F)c(-n3cc(CN(C)C)c(-c4ccccc4)n3)n2)c(OC)nc1N1CCOCC1 = 268
• C=CC(=O)Nc1cc(Nc2nccc(-n3cc(CN(C)C)c(-c4ccccc4)n3)n2)c(OC)nc1N1CCOCC1 = 246
